B1: GNB5 (parent)
chain: DINSVRYYPSGDAFASGSDDATCR

variants of: B1; assay: protein stability index of a GFP-peptide fusion (GPS, HEK-293T) (PSI 1-6); higher = more stable; details: c terminus: a fixed tail appended;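 also: lentivirally expressed fusions sorted by FACS into six bins by GFP to DsRed ratio, PSI derived from sequencing read proportions per bin multiplied by bin number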
METRIC: protein stability index
// return a plain number; no unit text

CHAIN_SEQUENCE	protein stability index
DINSVRYYPSSDAFASGSDDATCR [G11S]	4.09
DINSVRYYPSGDAFAIGSDDATCR [S16I]	3.27
DINSVAYYPSGDAFASGSDDATCR [R6A]	4.44
DPNSVRYYPSGDAFASGSDDATCR [I2P]	4.92

Consider the variant DINSVRYYPSGDAFASGSDDATSR [C23S] and give its measured protein stability index. 4.05

Consider the variant DINSVRYYPSGDAGASGSDDATCR [F14G] and give its measured protein stability index. 5.08

Consider the variant DINSVRYYPSGDAFYSGSDDATCR [A15Y] and give its measured protein stability index. 3.23

Consider the variant DINTVRYYPSGDAFASGSDDATCR [S4T] and give its measured protein stability index. 4.23

Consider the variant DINSVRYYPSGDAFASGSDHATCR [D20H] and give its measured protein stability index. 3.04

Consider the variant DINSVRYYPIGDAFASGSDDATCR [S10I] and give its measured protein stability index. 3.76

Consider the variant DINSVRYYPSGDAFASGGDDATCR [S18G] and give its measured protein stability index. 4.48

Consider the variant DINSVRYYPSTDAFASGSDDATCR [G11T] and give its measured protein stability index. 3.74

Consider the variant DINSVRYYPSGDAFASKSDDATCR [G17K] and give its measured protein stability index. 3.65

Consider the variant DINSVRYYPSGKAFASGSDDATCR [D12K] and give its measured protein stability index. 3

Consider the variant DINIVRYYPSGDAFASGSDDATCR [S4I] and give its measured protein stability index. 3.55

Consider the variant DINSVRYYPSGDAFASGSDDATIR [C23I] and give its measured protein stability index. 4
